assay-procedure: in vivo
condition-description: male, SD, rat, po, 30 mg/kg, Cmax (ng/ml)
Counter-ions that a name gives are not always drawn.
parameter: Cmax (ng/mL)

compound	unit-tag	Cmax
Cc1n[nH]c2nc(-c3ccc(NS(=O)(=O)c4cc(OC(C)C)ccn4)c(Cl)c3)nc(NCCN(C)C)c12	ng/mL	2480
Cc1n[nH]c2nc(-c3ccc(NS(=O)(=O)c4cc(F)ccc4F)c(F)c3)nc(O[C@@H]3CCNC[C@@H]3F)c12	ng/mL	283
Cc1n[nH]c2nc(-c3ccc(NS(=O)(=O)c4cc(Cl)ccc4F)cc3)nc(OCCN(C)CCO)c12	ng/mL	354
Cc1n[nH]c2nc(-c3ccc(NS(=O)(=O)c4cc(F)ccc4F)c(F)c3)nc(NCCN(C)C)c12	ng/mL	2470
COc1cc(-c2nc(NCCN(C)C)c3c(C)n[nH]c3n2)ccc1NS(=O)(=O)c1cc(F)ccc1F	ng/mL	267

P = Cc1n[nH]c2nc(-c3ccc(NS(=O)(=O)c4cc(Cl)ccc4F)c(Cl)c3)nc(NCCN(C)CCO)c12
Q = Cc1n[nH]c2nc(-c3ccc(NS(=O)(=O)c4cc(F)ccc4F)c(Cl)c3)nc(O[C@@H]3CCNC[C@@H]3F)c12 [Compound 156, hydrochloride]
Hi, I'm comparing P with Q and wondering which one has the bigger number for Cmax. Any idea? Refer to your chosen item by its label in the answer. Q
(Q: 548 ng/mL, P: 141 ng/mL)

* * *

assay-procedure: in vivo
condition-description: male, CD1, mouse
parameter: half-life (h)

smi	unit-tag	half-life
CCCC(=O)OCCN(C)CCNc1nc(-c2ccc(NS(=O)(=O)c3cc(Cl)ccc3F)cc2)nc2[nH]nc(C)c12	h	4.5

1 = Cc1n[nH]c2nc(-c3ccc(NS(=O)(=O)c4cc(C(F)(F)F)ccn4)cc3)nc(NCCN(C)C)c12
2 = Cc1n[nH]c2nc(-c3ccc(NS(=O)(=O)c4cc(Cl)ccc4F)cc3)nc(NCCN(C)CCOC(=O)CC(C)C)c12
Hi, I'm comparing 1 with 2 and wondering which one has the bigger number for half-life. Any idea? Refer to your chosen item by its label in the answer. 1

* * *

assay-procedure: physchem
condition-description: 25 °C, pH 5, fessif, kinetic from dmso stock
parameter: solubility at 2 h (µM)

Use the examples below as a reference point.
compound	solubility at 2 h, µM
Cc1n[nH]c2nc(-c3ccc(NS(=O)(=O)c4cc(F)ccc4F)c(Cl)c3)nc(NCCN(C)C)c12 [Compound 85]	315
Cc1n[nH]c2nc(-c3ccc(NS(=O)(=O)c4cc(Cl)ccc4F)c(F)c3)nc(NCCN(C)C)c12 [Compound 38]	298
Cc1n[nH]c2nc(-c3ccc(NS(=O)(=O)c4cc(Cl)ccc4F)cc3)nc(O[C@@H]3CCNC[C@@H]3F)c12 [Compound 29]	245
Cc1n[nH]c2nc(-c3ccc(NS(=O)(=O)c4cc(Cl)ccc4F)cc3)nc(NC3CN(C(C)C)C3)c12 [Compound 25]	301
Cc1n[nH]c2nc(-c3ccc(NS(=O)(=O)c4cc(Cl)ccc4F)c(F)c3)nc(OC3CCN(C)CC3)c12 [Compound 79]	321

A = Cc1n[nH]c2nc(-c3ccc(NS(=O)(=O)N4CCCC4)cc3)nc(OC3CCN(C(C)C)CC3)c12 [Compound 2]
B = Cc1n[nH]c2nc(-c3ccc(NS(=O)(=O)c4cc(Cl)ccc4F)cc3)nc(OCCN(C)C)c12 [Compound 8]
C = Cc1n[nH]c2nc(-c3cnc(NS(=O)(=O)c4cc(Cl)ccc4F)nc3)nc(OC3CCN(C(C)C)CC3)c12 [Compound 12]
# sort list by recorded solubility at 2 h, greatest to least Present the labels in the sequence the task asks for. A, B, C
(A: 291 µM, B: 91 µM, C: 33 µM)

* * *

assay-procedure: physchem
condition-description: 25 °C, pH 7.4, aqueous buffer, kinetic from dmso stock
parameter: solubility at 2 h (µM)

Use the examples below as a reference point.
smi	solubility at 2 h, µM
CCN1C[C@H](F)[C@H](Oc2nc(-c3ccc(NS(=O)(=O)c4cc(Cl)ccc4F)cc3)nc3[nH]nc(C)c23)C1	0.48
Cc1n[nH]c2nc(-c3ccc(NS(=O)(=O)c4cc(Cl)ccc4F)cc3)nc(N(C)CCN(C)C)c12	1.61
Cc1n[nH]c2nc(-c3ccc(NS(=O)(=O)c4ccccn4)cc3)nc(O[C@@H]3CCN(C)C[C@@H]3F)c12	1.51
Cc1n[nH]c2nc(-c3ccc(NS(=O)(=O)c4cc(Cl)ccc4F)c(F)c3)nc(OC3CCN(C(C)C)CC3)c12	1.7
Cc1n[nH]c2nc(-c3ccc(NS(=O)(=O)c4cc(Cl)ccc4F)cc3)nc(O[C@H]3CCNC3)c12	63.6
Cc1n[nH]c2nc(-c3ccc(NS(=O)(=O)c4ccncc4F)cc3)nc(NCCN(C)C)c12	282

1 = Cc1n[nH]c2nc(-c3ccc(NS(=O)(=O)c4cc(Cl)ccc4F)cc3)nc(NCCN(C)C=O)c12
2 = Cc1n[nH]c2nc(-c3ccc(NS(=O)(=O)c4cc(Cl)ccc4F)cc3)nc(O[C@@H]3CN(C)C[C@@H]3F)c12
Hi, I'm comparing 1 with 2 and wondering which one has the bigger number for solubility at 2 h. Any idea? Refer to your chosen item by its label in the answer. 1

* * *

assay-procedure: in vivo
condition-description: male, CD1, mouse, po, 30 mg/kg
parameter: bioavailability (%)

smi	unit-tag	endpoint-value
Cc1n[nH]c2nc(-c3ccc(NS(=O)(=O)c4cc(C(F)(F)F)ccn4)cc3)nc(NCCN(C)C)c12	%	18.8
Cc1n[nH]c2nc(-c3ccc(NS(=O)(=O)c4cc(Cl)ccc4F)cc3)nc(NCCN(C)C=O)c12	%	0.5
COc1ccncc1S(=O)(=O)Nc1ccc(-c2nc(NCCN(C)C)c3c(C)n[nH]c3n2)cc1	%	0.31
Cc1n[nH]c2nc(-c3ccc(NS(=O)(=O)c4cc(Cl)ccc4F)cc3)nc(OCCN(C)CCO)c12	%	3.1

a = CCCC(=O)OCCN(C)CCNc1nc(-c2ccc(NS(=O)(=O)c3cc(Cl)ccc3F)cc2)nc2[nH]nc(C)c12
b = Cc1n[nH]c2nc(-c3ccc(NS(=O)(=O)c4cc(Cl)ccc4F)cc3)nc(NCCN(C)CCOC(=O)CC(C)C)c12
I'm curious whether a or b has the smaller bioavailability number. Which is it? Refer to your chosen item by its label in the answer. a

* * *

assay-procedure: physchem
condition-description: 25 °C, pH 5, fessif, kinetic from dmso stock
parameter: solubility at 2 h (µM)

Use the examples below as a reference point.
smi	solubility at 2 h, µM
Cc1n[nH]c2nc(-c3ccc(NS(=O)(=O)c4cc(C(F)(F)F)ccn4)cc3)nc(O[C@@H]3CCN(C)C[C@@H]3F)c12	205
Cc1n[nH]c2nc(-c3ccc(NS(=O)(=O)c4cc(F)ccc4F)c(F)c3)nc(NCCN(C)C)c12	297

P = COc1ccnc(S(=O)(=O)Nc2ccc(-c3nc(NCCN(C)C)c4c(C)n[nH]c4n3)cc2)c1
Q = CCN1C[C@H](F)[C@H](Oc2nc(-c3ccc(NS(=O)(=O)c4cc(Cl)ccc4F)cc3)nc3[nH]nc(C)c23)C1
I'm curious whether P or Q has the smaller solubility at 2 h number. Which is it? Refer to your chosen item by its label in the answer. Q
(Q: 73.7 µM, P: 256 µM)

* * *

assay-procedure: physchem
condition-description: 25 °C, pH 5, fessif, kinetic from dmso stock
parameter: solubility at 2 h (µM)

smi	solubility at 2 h / µM
Cc1n[nH]c2nc(-c3ccc(NS(=O)(=O)c4cc(Cl)ccc4F)c(F)c3)nc(NCCN(C)CCO)c12	275
Cc1n[nH]c2nc(-c3ccc(NS(=O)(=O)c4cc(Cl)ccc4F)cc3)nc(NCCN(C)C=O)c12	268
CC(=O)OCCN(C)CCNc1nc(-c2ccc(NS(=O)(=O)c3cc(Cl)ccc3F)cc2)nc2[nH]nc(C)c12	290
Cc1n[nH]c2nc(-c3ccc(NS(=O)(=O)c4cc(Cl)ccc4F)cc3)nc(NCCN(C)C)c12	289
